Entry source: paper PMC7349657

Documented time to degrade BTK / reach maximum degradation across a set of molecules
- Target system: BTK (Homo sapiens)
- Sequence (Q06187 whole entry): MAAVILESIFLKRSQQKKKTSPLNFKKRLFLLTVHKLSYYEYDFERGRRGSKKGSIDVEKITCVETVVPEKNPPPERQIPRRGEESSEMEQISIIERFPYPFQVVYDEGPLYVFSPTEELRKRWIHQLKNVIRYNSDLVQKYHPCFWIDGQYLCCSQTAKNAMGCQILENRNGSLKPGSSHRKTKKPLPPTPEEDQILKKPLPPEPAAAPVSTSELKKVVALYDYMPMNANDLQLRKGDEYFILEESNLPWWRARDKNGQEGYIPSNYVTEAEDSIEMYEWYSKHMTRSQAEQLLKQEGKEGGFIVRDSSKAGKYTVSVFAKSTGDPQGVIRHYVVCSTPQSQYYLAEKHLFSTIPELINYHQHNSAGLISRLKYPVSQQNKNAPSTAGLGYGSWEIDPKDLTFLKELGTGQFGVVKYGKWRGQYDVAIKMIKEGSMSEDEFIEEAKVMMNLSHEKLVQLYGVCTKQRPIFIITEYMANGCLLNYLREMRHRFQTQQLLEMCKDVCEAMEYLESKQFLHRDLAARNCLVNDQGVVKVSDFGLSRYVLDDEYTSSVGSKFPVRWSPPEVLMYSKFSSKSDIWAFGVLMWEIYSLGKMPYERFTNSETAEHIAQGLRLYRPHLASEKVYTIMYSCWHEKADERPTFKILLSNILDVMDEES
- Test protocol: Time course of BTK degradation in Ramos and Mino cells
- Assay type: cell-based
- Parameters: endogenous in cells; host or cells: Mino (ATCC CRL-3000), Ramos (ATCC CRL-1596), K562 (NCI-60)
- Experimental parameters: 100 nM PROTAC, Ramos cells (RC-3: Mino cells)
Readout name: time to degrade BTK / reach maximum degradation

INSERT INTO assay_data (molecule, endpoint_result) VALUES
  ('Nc1ncnc2c1c(-c1ccc(Oc3ccccc3)cc1)nn2C1CCCN(C(=O)CCCCCCOCCOCCOCCOCCOc2cccc3c2C(=O)N(C2CCC(=O)NC2=O)C3=O)C1 (stereo not drawn) [NC-1]', '2 to 4 h'),
  ('Nc1ncnc2c1c(-c1ccc(Oc3ccccc3)cc1)nn2C1CCCN(C(=O)C=CCCCCOCCOCCOCCOCCOc2cccc3c2C(=O)N(C2CCC(=O)NC2=O)C3=O)C1 (stereo not drawn) [IR-2]', '2 to 4 h'),
  ('N#CC(=CCCCCOCCOCCOCCOCCOc1cccc2c1C(=O)N(C1CCC(=O)NC1=O)C2=O)C(=O)N1CCCC(n2nc(-c3ccc(Oc4ccccc4)cc3)c3c(N)ncnc32)C1 (stereo not drawn) [RC-2]', '6 to 24 h');
